Attribute: ΔTm after incubation at 37° C. for 18 h
Tested on: calf thymus DNA (CT-DNA)
Assay: Thermal denaturation studies with duplex-form calf thymus DNA
Format: binding
Settings: 18 h at 37° C.; [PBD]:[DNA] 1:5; CT-DNA 100 μM, ligand 20 μM; pH 7.00
reported.endpoint: ΔTm after incubation at 37° C. for 18 h (°C)

1. COc1cc2c(cc1OCCCCSC(=S)N1CCN(C)CC1)N=C[C@@H]1CCCN1C2=O [Compound 14c]: 2.2
2. COc1cc2c(cc1OCCCSC(=S)N1CCN(CCCN3C(=O)c4cccc5cccc(c45)C3=O)CC1)N=C[C@@H]1CCCN1C2=O [Compound 13b]: 3.3
3. COc1cc2c(cc1OCCCCSC(=S)N1CCN(CCCN3C(=O)c4cccc5cccc(c45)C3=O)CC1)N=C[C@@H]1CCCN1C2=O [Compound 13c]: 5.0
4. COc1cc2c(cc1OCCCCN1CCN(C(=S)SCCC(C#N)(c3ccccc3)c3ccccc3)CC1)N=C[C@@H]1CCCN1C2=O [Compound 12c]: 2.1
5. COc1cc2c(cc1OCCCN1CCN(C(=S)SCCC(C#N)(c3ccccc3)c3ccccc3)CC1)N=C[C@@H]1CCCN1C2=O [Compound 12b]: 4.0
6. COc1cc2c(cc1OCCCCCSC(=S)N1CCN(C)CC1)N=C[C@@H]1CCCN1C2=O [Compound 14d]: 10.9
7. COc1cc2c(cc1OCCCCCN1CCN(C(=S)SCCC(C#N)(c3ccccc3)c3ccccc3)CC1)N=C[C@@H]1CCCN1C2=O [Compound 12d]: 2.1
8. COc1cc2c(cc1O)N=CC1CCCN1C2=O (stereo not drawn) [DC-81, reference compound]: 0.7
9. COc1cc2c(cc1OCCCCCSC(=S)N1CCN(CCCN3C(=O)c4cccc5cccc(c45)C3=O)CC1)N=C[C@@H]1CCCN1C2=O [Compound 13d]: 4.6
